# STUDY SYSTEM: bovine serum albumin (BSA) (bovine) (UniProt P02769)
# Sequence (P02769 25-607 limits assumed): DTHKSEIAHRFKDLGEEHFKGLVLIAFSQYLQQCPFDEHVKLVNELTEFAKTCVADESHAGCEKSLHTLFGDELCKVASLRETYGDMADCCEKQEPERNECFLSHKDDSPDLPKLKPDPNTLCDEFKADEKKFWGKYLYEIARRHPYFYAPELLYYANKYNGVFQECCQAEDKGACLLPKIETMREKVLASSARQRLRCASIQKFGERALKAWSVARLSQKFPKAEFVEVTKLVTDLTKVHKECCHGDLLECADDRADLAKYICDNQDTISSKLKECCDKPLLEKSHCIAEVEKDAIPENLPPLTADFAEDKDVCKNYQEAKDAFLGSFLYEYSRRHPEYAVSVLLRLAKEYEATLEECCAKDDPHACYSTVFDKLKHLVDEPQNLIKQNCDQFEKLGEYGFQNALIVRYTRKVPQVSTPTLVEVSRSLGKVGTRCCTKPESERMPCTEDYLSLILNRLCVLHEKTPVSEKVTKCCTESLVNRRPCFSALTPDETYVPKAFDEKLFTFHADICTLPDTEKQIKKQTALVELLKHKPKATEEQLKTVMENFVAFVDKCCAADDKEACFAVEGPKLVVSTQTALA
# ASSAY COMMENT: EIA, BSA background
MEASURED PARAMETER: OD (A492) (OD)
Provide the reading as a plain figure in OD.

stdin: Assign OD (A492) to the following record: HCV 208A-126 (antibody, V domains shown) VH: QLQQSGPVLVKPGASVMISCKTSGYTFTENAMHWVKQSHGKSLEWIGGVNPNNGDTIFNQKFKGKATLTVDKSSNTAFTELRSLPSEESTVYYCVRRGLDFFDYWGQGTSVTVSS VL: DIVLTQSPASLAVSLGQRATISCRASQSVSTSRYSYMHWYQQKPGQPPKLLIKYASNLESGVPARFSGSGSGTDFTLNIHPVAEEDTAAYYCQHSWEFPFTFGSGTKLEIKR
stdout: 0.24

stdin: Assign OD (A492) to the following record: HCV 208A-692 (antibody, V domains shown) VH: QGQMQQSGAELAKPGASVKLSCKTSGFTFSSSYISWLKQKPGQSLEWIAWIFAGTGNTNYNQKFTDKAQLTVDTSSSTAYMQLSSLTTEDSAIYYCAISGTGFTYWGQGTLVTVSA VL: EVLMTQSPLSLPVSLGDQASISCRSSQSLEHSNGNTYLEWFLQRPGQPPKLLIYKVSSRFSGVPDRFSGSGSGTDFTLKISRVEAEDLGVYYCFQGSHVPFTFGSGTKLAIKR
stdout: 0.06

stdin: Assign OD (A492) to the following record: HCV 208A-210 (antibody, V domains shown) VH: QVQLQQSGPELVKPGASMRISCKASGYTFTSYYVHWIKQRPGQGLEWIGCIYPGDVNTDYNEKFKGKATLTADKSSSTAYMQVSTLTSEDSAIYFCVLYYYGSFAYWGQGTLVTVSA VL: EIVLTQSPAITAASLGQNVTITCRASSSVSYMHWYRQKSGTSPQLWIYEISRRASGVPARFRASGSGTSYSLTISSMEAEDAAIYYCQQWNYPLTFGAGTKLEVKR
stdout: 0.06

stdin: Assign OD (A492) to the following record: HCV 208B-353 (antibody, V domains shown) VH: EVQLVESGGDLVKPGGSLKLSCAASGFTFNHYGMSWVRQPPDKRLEWVATISSGGGYTYYPDSVKGRFTISRDNAKDTLSLQMSSLRSGDTAVYYCASLYGSLFAYWGQGTLVTVSA VL: DIVMTQSQKFMSTTVGDRVRVTCKASQNVGTAVAWYQQKPGQSPKLLIYSASNRYTGVPDRFTGSGSGTDFTLTITNMQSEDLADYFCQQYSTYPLTFGSGAKLEIKR
stdout: 0.06

stdin: Assign OD (A492) to the following record: HCV 208A-422 (antibody, V domains shown) VH: DVQLQESGPGLVNPSQSLSLTCSVTGYSITSGYYWIWIQQSPGNKLEWMGYIKYDGGNNYSPSLKNRISIARDTSKNQCFLKLNSVTIEDTATYYCTRGSDSFDYWGQGTTLTVSS VL: DIVLTQSPASLAVSLGQRAIISCKASQSVSFAGTNLMHWYQQKPGQQPKLLIYRASNLETGVPTRFSGSGSRTDFTLNIHPVEEDDAATYYCQQSREYYTFGGGTKLEIKR
stdout: 1.1

stdin: Assign OD (A492) to the following record: HCV 208B-408 (antibody, V domains shown) VH: EVKLVESGGGLVQPGGSLRLSCASSGFTFTDYYMSWVRQPPGKALEWLGFIRNKAYGYTTEFSASVNGRFTISRDDSQSVPYLQMNTLRAEDSATYYCARVLYYDYGGFAYWGQGTLVTVST VL: DIQMTQSPASLSASVGETVTITCRASGNIHTYLAWYQQKQGKSPQLLVYNANTLADGVPSRFSGSGSGTQFSLKINSLQPDDFGSYYCQHFWSAPWTFGGGTQLEIKR
stdout: 0.08

stdin: Assign OD (A492) to the following record: HCV 208A-874 (antibody, V domains shown) VH: QVQLQQPGAELVKPGASVKLSCKASGYTLSSYWMHWVKQRPGQGLEWIGEIHPSDSYTSYNQKFKDKATLTVDKSSSTAYMQLSSLTSEDSAVYYCARGGYYRYDEFAYWGQGTLVTVSA VL: DIVMTQSHKFMSTSIGDRVSITCKASQNVSPAVAWYQQKPGQSPKLLIYSASSRYTGVPDRFTGSGSGTAFTFTISSVQAEDLAVYFCQQHFSTPWTFGGGTMLEIKR
stdout: 0.06
